# credit: PubChem BioAssay (NCI)

- Tested on: MOLT-4 leukemia
- experimentNotes: NCI tumour cell line growth inhibition, 48 h
Below, each entry is listed alongside its reported GI50.

As a guide, the following entries are already answered.
Ask: Determine from records and report GI50 for O=C1c2ccccc2C(=O)c2c(N=Nc3[nH]c(=S)[nH]c3O)cccc21
Result: 1.1 µM

Ask: Entry O=C1OCC2=C1C(c1cccc(Cl)c1)c1cc3c(cc1N2CCO)OCO3 (stereo not given) needs its GI50 filled in; supply it.
Result: 1.14 µM

Ask: # return recorded GI50 for entry CN([O-])c1nc(N(C)[O-])nc(N2CCOCC2)n1.CN([O-])c1nc(N(C)[OH2+])nc(N2CCOCC2)n1.[Fe+3]
Result: > 100 µM

Ask: Return GI50 (reported value) for this compound: Cc1ccc(-c2cc(C(=O)N3N=C(c4ccc(N)cc4)CC3c3ccc(Cl)cc3)c3ccccc3n2)cc1 (stereo not given)
Result: 3.23 µM

Now turn to the next compound.
Ask: Give me measured GI50, please, for this compound: COc1cc(O)c2c(=O)c(OC)c(-c3ccc(OC)c(OC)c3)oc2c1.[Co]
Result: 9.92 µM

---

- Tested on: BT-549 breast
- experimentNotes: NCI tumour cell line growth inhibition, 48 h
resultType: TGI

Consider the worked cases shown below.
Ask: Look up TGI of Cn1c(=O)c2c(nc3sc4nc5ccccc5nc4n32)n(C)c1=O and report it.
Result: > 100 µM

Ask: Report TGI for COc1cc(O)c2c(=O)c(OC)c(-c3ccc(OC)c(OC)c3)oc2c1.[Co]
Result: > 100 µM

Ask: For the compound c1ccc2c(c1)SC1=Nc3sc4ccccc4[n+]3CN12 , give its reported TGI.
Result: > 100 µM

Ask: Name the recorded TGI of the compound listed here: O=C1c2ccc(O)cc2OC(c2cc(O)c(O)c(O)c2)C1O (centres undefined)
Result: 48 µM

Ask: Please give measured TGI of the following entry: COc1cc(C2c3[nH]c4ccccc4c3[C@@H](Nc3ccc(F)cc3)[C@H]3COC(=O)N23)cc(OC)c1O (some centres undefined)
Result: 4.28 µM

---
Ask: Give the value of TGI reported for the following: CCOC(=O)N/N=C(\Cc1ccccc1)OCC
Result: > 100 µM

Ask: Please indicate TGI recorded for CN(C)CCNc1ccc2c(=O)n(CCN(C)C)c(=O)n3c4ccccc4c(=O)c1c23
Result: 5.7 µM

Ask: Name the recorded TGI of the compound listed here: CC1(C)C(OC(=O)c2ccccc2)C[C@]23CCC[C@](C)(C[C@@H](O)C12)C3 (some centres undefined)
Result: 30.3 µM

Ask: Given the compound CN(C)c1ccc(/C=C2\Oc3ccccc3C2=O)cc1 , write its reported TGI.
Result: > 100 µM

Ask: Indicate the recorded TGI value for this compound: CC(C)[C@]12O[C@H]1[C@@H]1O[C@]13[C@]1(O[C@H]1C[C@H]1C4=C(CC[C@@]13C)C(=O)OC4)[C@@H]2OC(=O)CN(C)C
Result: 0.0564 µM

Ask: Kindly indicate its recorded TGI. Item: O=c1c2cccnc2[nH]c2ccc3[nH]ncc3c12
Result: > 10 µM

---

- System: NCI-H522 lung
- experimentNotes: NCI tumour cell line growth inhibition, 48 h
# Lookup of reported TGI keyed by entry
Enter your answer as a number in µM; do not include the unit.

Consider the reported TGI for these compounds:
Ask: Recall and state the measured TGI for CC1=C(C(=O)CC(=O)C(=O)Nc2ccccc2C(F)(F)F)Sc2ccccc2N1 .
Result: 68.4

Ask: Return reported TGI. Input compound: COc1ccc(C(=O)/C=C2\C(=O)Nc3ccc(Br)cc32)cc1
Result: 13.4

# evaluate next
Ask: Tell me TGI reported for COC(=O)C1CC2C=CC1N(C(=O)OCc1ccccc1)C2 (stereo not given)
Result: 43.5

---

- System: TK-10 renal
- experimentNotes: NCI tumour cell line growth inhibition, 48 h
# Lookup of reported TGI keyed by entry

Ask: Tell me measured TGI for CN(C)c1ccc(/C=C2\Oc3ccccc3C2=O)cc1 please.
Result: > 100 µM

Ask: Please report TGI for the following compound: COC1CC(C)(N)C(O)C(C)O1 (stereo unspecified)
Result: > 100 µM

Ask: Tell me measured TGI for COc1ccc(/C=C/C(=O)c2sc(NC(=S)NC(=O)c3ccccc3F)nc2C)cc1OC please.
Result: > 100 µM

Ask: Find the measured TGI of c1cc(-c2ccsc2-c2ccsc2)cs1 and report it.
Result: > 100 µM

Ask: Provide TGI value for the following compound: O=c1c2cccnc2[nH]c2ccc3[nH]ncc3c12
Result: > 10 µM

Ask: Annotate the compound O=C(O)c1cc(-c2ccc3c(O)ccc(O)c3c2)ccc1O with its measured TGI.
Result: 35.6 µM

Ask: Provide TGI value for the following compound: Cc1nn2c(C(=O)N/N=C/c3ccccc3O)c(C)nc2s1
Result: > 100 µM

Ask: Write down TGI measured for item CC1(C)C(OC(=O)c2ccccc2)C[C@]23CCC[C@](C)(C[C@@H](O)C12)C3 (stereo partly specified)
Result: 91.6 µM

---
Ask: Could you please provide reported TGI for COc1cccc(/C=N/Nc2ncnc3c2cnn3-c2cccc(OC)c2)c1 ? Thanks!
Result: > 25 µM

Ask: Name the recorded TGI of the item Clc1ccc(C2c3ccccc3-c3nccn32)c(Cl)c1 (stereo unspecified) in your answer.
Result: 28.6 µM

Ask: Read off the recorded TGI for CC1=NN(c2nc(N)nc(/C(C#N)=C\C3COc4ccccc4C3=O)n2)C(C)(C)C1 (stereo unspecified)
Result: > 100 µM

---

- Test system: NCI-H226 lung
- experimentNotes: NCI tumour cell line growth inhibition, 48 h
resultType: TGI (µM)
Please reply with the bare figure in µM and do not write the unit itself.

The cases that follow already have their TGI on record.
Ask: Report its TGI with NCI-H226 lung as the test system: CC(=O)NC1C(OCc2ccccc2)OC(CO)C(O)C1OCC(=O)N1CCCC1C(=O)N[C@@H](CCC(=O)NCCNCCNc1c2ccccc2nc2cccc([N+](=O)[O-])c12)C(N)=O (some centres not stated)
Result: 33.8

Ask: Give TGI only, for Cn1cc(C2=C(c3cn(CCSC(=N)N)c4ccccc34)C(=O)NC2=O)c2ccccc21 , using NCI-H226 lung data.
Result: 12.2

Ask: State TGI on NCI-H226 lung. Entry: O=C(C[Si](CC(=O)c1cccc(C(F)(F)F)c1)CC(=O)c1cccc(C(F)(F)F)c1)c1cccc(C(F)(F)F)c1
Result: 5.3

---
Ask: Fetch value of TGI on NCI-H226 lung for CN(C)CCNc1ccc2c(=O)n(CCN(C)C)c(=O)n3c4ccccc4c(=O)c1c23 .
Result: 1.58

Ask: Provide TGI, tested on NCI-H226 lung, for Cc1c2cnccc2c(C)c2c1c1cc(CO)ccc1n2C .
Result: 0.57

Ask: Find the measured TGI of COc1cc(C2c3[nH]c4ccccc4c3[C@@H](Nc3ccc(F)cc3)[C@H]3COC(=O)N23)cc(OC)c1O (some centres not stated) with NCI-H226 lung as test system.
Result: 2.9

Ask: State measured TGI of the molecule COc1ccc(CC#N)c(OCc2ccccc2)c1 with NCI-H226 lung.
Result: 66

Ask: State measured TGI of the molecule c1ccc2cc(CN3CCC(C4CCN(Cc5ccc6ccccc6c5)CC4)CC3)ccc2c1 with NCI-H226 lung.
Result: 33.1

Ask: Please indicate recorded TGI of Oc1ccc(N=Cc2ccc(C=Nc3ccc(O)cc3)cc2)cc1 measured with NCI-H226 lung.
Result: 29.5

Ask: GET TGI where system = NCI-H226 lung and item = O=Cc1cc2c(s1)C(=O)c1sccc1C2=O
Result: 3.53

---

- Test system: BT-549 breast
- experimentNotes: NCI tumour cell line growth inhibition, 48 h; in the data active = GI50 below about 0.43 µM; inactive = the rest
One label from this list, please: active, inactive

Ask: Fill in: this test's call for CN1CCN(c2ccc3nc(-c4c5cccccc-5[nH]c4=O)[nH]c3c2)CC1 is ___
Result: inactive

Ask: Test call, this compound: CCN(CC)CCOc1ccc(/C=C2\CC3C4CC=C5C[C@@H](N6CCCC6)CC[C@]5(C)C4CC[C@]3(C)[C@H]2OC(C)=O)cc1OC (some centres undefined)
Result: inactive

---
Ask: What was the test verdict on NC(=O)c1cccc(N2Cc3ccccc3OC3=C2C(=O)c2c(O)ccc(O)c2C3=O)c1 ?
Result: inactive

Ask: Please state the recorded outcome for this compound: CCN(CC)c1ccc(/C=C2\SC(=O)C(Nc3nnc(-c4cccnc4SCc4ccccc4)o3)C2=O)cc1 (centres undefined)
Result: inactive

Ask: Record request — test call for C[C@@H](O)[C@H]1C(=O)N2C(C(=O)O)=C(SCCN=CN)C[C@H]12
Result: inactive

Ask: Would you mind telling me which call this test gave CC1CN1C1=CC(=O)c2c(c(CO)cn2C)C1=O (centres undefined) ?
Result: active

Ask: What outcome does the record of this test show for C[C@@]1(CO)[C@H](O)CC[C@@]2(C)[C@H]1CC[C@H]1C[C@@H]3C[C@@]12CC[C@@]3(O)COC(=O)CN ?
Result: inactive

Ask: // outcome(item) with item = Cc1cc(Nc2cccc(F)c2)nc(NCc2ccccc2)n1
Result: inactive

Ask: // outcome(item) with item = CCOC(=O)/C=C/C1=C(c2csc3ccccc23)c2ccccc2CC1
Result: inactive
